compounds and their reported relative solubility at 100 uM
- conditionParameters: 100.0 µM
Enter a number only.

Answered examples (5):
C=CC(=O)N1CCN(Cc2c[nH]c3ccc(C#N)cc23)CC1 = 0.92
CNc1ccc(N(Cc2ccsc2)C(=O)Cn2nnc3ccccc32)cc1 = 0.77
Cc1nnn(C)c1NC(=O)Cc1cccc(Cl)c1 = 1
Cc1ccc(NC(=O)Cc2cccc(Cl)c2)cn1 = 1
Cc1ccccc1NC1CCN(c2ccc(S(N)(=O)=O)cc2)CC1 = 0.91

Data request, read-out relative solubility at 100 uM, for Cc1ccncc1NC(=O)Cc1cccc(CO)c1
1

What about N#Cc1cccc(CN2CCN(C(=O)CCl)CC2)c1 ?
0.99

One more compound: Cc1cc(Cl)cc(NC(=O)Nc2cccnc2)c1
1

###

- assayedTarget: SARS-CoV-2 Main Protease (SARS-CoV-2)
- conditionParameters: 50.0 µM
endpointName: inhibition (%)
# value in %; strip the unit string

Consider the worked cases shown below.
C/C(O)=C(\C#N)C(=O)Nc1ccc(C(F)(F)F)cc1 = -3
C=CC(=O)N(c1ccc2ncsc2c1)C(C(=O)Nc1ccc(Cl)cc1)c1cccnc1 (stereo not drawn) = 25.3
Cc1cc(S(=O)(=O)c2c([N+](=O)[O-])cc(C(F)(F)F)cc2[N+](=O)[O-])c(Cl)cc1Cl = 9.61
C=CC(=O)N(c1ccc(C(C)(C)C)cc1)C(C(=O)Nc1c(C)cccc1CC)c1cccnc1 (stereo not drawn) = -3.74
Cc1ccncc1NC(=O)Nc1cncc(C#N)c1 = 3.96

I am curious: what inhibition value has been reported for COc1ccccc1OCCNC(=O)c1cc(=O)[nH]c2ccc(Cl)cc12 ?
34.1

Another compound to look at: Nc1cccc(C2CN(C(=O)CCl)Cc3ccccc32)c1 (stereo not drawn)
53.4

Field entry: C=CC(=O)N(c1ccc(C(F)(F)F)cc1)C(C(=O)Nc1ccc(OC)cc1)c1cccnc1 (stereo not drawn)
60.7

###

# key: entry, value: relative solubility at 20 uM
- conditionParameters: 20.0 µM
Reply briefly: the number, and no unit.

COc1ccccc1OCCN(C)C(=O)c1cc(=O)[nH]c2ccc(Cl)cc12 = 1

# evaluate next
What value of relative solubility at 20 uM has been reported for the following molecule? O=C(Cc1ccccc1OC1CCOC1)OCc1cnn[nH]1 (stereo unspecified)
1

###

- assayedTarget: UniProt:P0DTD1
- conditionParameters: 20.0 µM
Listing of entries alongside the reported inhibition.
The reply should be a number in %, with the unit left off.

Consider the worked cases shown below.
C=CC(=O)N(c1ccc(N(C)C)c(C)c1)C(C(=O)Nc1ccccc1Br)c1cccnc1 (stereo unspecified) = 0
O=C(Nc1ccccc1Cl)c1cc(Cl)ccc1O = 7.14
CNS(=O)(=O)c1ccc(C(C)NC(=O)NC(C)(C)C)cc1 (stereo unspecified) = 0

Item under review: C=CC(=O)N(c1ccc(C2(C)CC2)cc1)C(C(=O)Nc1ccc(Br)cc1)c1cccnc1 (stereo unspecified) . Reported inhibition?
2.51

# repeat for CC(=O)Nc1ccc(C#N)cc1CN1CCN(C(=O)CCl)CC1
59.2

Next up: O=C(COc1ccccc1)NCCc1ccccc1
0

###

- assayedTarget: SARS-CoV-2 Main Protease (SARS-CoV-2) (UniProt P0DTD1)
- conditionParameters: 50.0 µM
endpointName: inhibition (%)
Enter your answer as a number in %; do not include the unit.

C=CC(=O)N(c1ccc(C(C)(C)C)cc1)C(C(=O)NC(C)(C)C)c1cccnc1 (stereo not drawn) = 16.1
CSc1ccncc1NC(=O)Cc1ccc2c(c1)CCCC2 = 0

Entry O=C(CCl)N1CCN(Cc2cccc3ccccc23)CC1 : reported inhibition = ?
100

###

- assayedTarget: SARS-CoV-2 Main Protease (SARS-CoV-2) (UniProt P0DTD1)
- conditionParameters: 20.0 µM
endpointName: inhibition (%)
Response body: numeric value in %, unit text excluded.

CC(C)c1nc(CN(C)C(=O)N[C@H](C(=O)N[C@@H](Cc2ccccc2)C[C@H](O)[C@H](Cc2ccccc2)NC(=O)OCc2cncs2)C(C)C)cs1 (stereo in doubt) = 2.31

inhibition lookup needed for N#Cc1cnn(C(=O)c2cccs2)c1C1CC1 , thanks.
33.2

What do you have for Cc1ccncc1NC(=O)N(C)c1cccc(Cl)c1 ?
17.6

Ok, now C=CC(=O)N(c1ccc(C(C)(C)C)cc1)C(C(=O)NC(C)(C)C)c1cncc(OC)c1 (centres undefined)
-13.4

Can you handle O=C(N/N=C/c1c[nH]cn1)C1CCCCC1 next?
-3.95

What do you have for CO[C@H](C)C(=O)Nc1cnccc1C (stereo in doubt) ?
4.95

Let us now turn to C=CC(=O)N(c1ccc2cc[nH]c2c1)C(C(=O)NC(C)(C)C)c1cccnc1 (centres undefined)
5.38

Please do the same for CC(C)(C)NC(=O)CN1C(=O)C(=O)c2cccc(Br)c21 as well.
-2.41

What do you get for CCOc1ccccc1OC1CCN(C(=O)c2cc(=O)[nH]c3cc(F)ccc23)C1 (centres undefined) ?
13.4

What do you have for CCOC(=O)[C@H]1O[C@@H]1C(=O)N[C@@H](CC(C)C)C(=O)NCCC(C)C (stereo in doubt) ?
-1.54

Consider next the compound NS(=O)(=O)c1ccc2c(c1)C(=O)C(=O)N2 in the same way.
-2.6

Then what about the compound CCOC(=O)c1c(C)n(S(C)(=O)=O)c2ccc(N(C(=O)c3ccco3)S(C)(=O)=O)cc12 ?
67.5

Try O=C(Cc1cccc(Cl)c1)Nc1nncs1 next.
-9.94

Record: Cc1ccncc1NC(=O)C(C)c1cccc(Cl)c1 (centres undefined)
58

###

- conditionParameters: 100.0 µM
endpointName: relative solubility at 100 uM
Form: value (number only, do not type unit).

These solved cases illustrate the format of a correct answer.
Cc1ccncc1-c1nnc(-c2cccc(Cl)c2)o1 = 0.99
CCn1c(CSc2nc(C)c(C)n2CC2CCCO2)nc2cc(S(=O)(=O)N(C)C)ccc21 (centres undefined) = 0.84
O=C(O)[C@@H](Cc1nc(=O)cc[nH]1)NCc1ccc(Cl)s1 (stereo in doubt) = 1

Please report the recorded relative solubility at 100 uM for C=CC(=O)N(c1ccc(C(C)(C)C)cc1)C(C(=O)NCCCSC)c1cccnc1 (centres undefined) .
1

And the next one, N#Cc1cccc(C2CN(C(=O)CCl)Cc3ccccc32)c1 (centres undefined) ?
0.99

And the next one, CC(NC(=O)C(Cc1ccccc1)NC(=O)c1ccco1)c1ncco1 (centres undefined) ?
1

For O=C(CC1(c2ccccc2)CCCC1)Nc1cccnc1 then?
1

And for O=C(c1cc(=O)[nH]c2ccc(F)cc12)N1CCN(S(=O)(=O)c2ccc(Cl)cc2)CC1 ?
0.81

And COC1CCN(c2ccc(S(N)(=O)=O)cc2)CC1 ?
1

Another compound to look at: CC(NC(=O)Nc1cccc(N2CCCCC2=O)c1)c1ccn[nH]1 (centres undefined)
1

Again, but for O=C(C1CCN(c2ccncc2)CC1)N1CCOCC1
1

# iterate: O=C(CCl)N1CC2CC1CN2Cc1cccc(Cl)c1 (centres undefined)
1

Request: COc1ccccc1OCC(C)NC(=O)c1cc(=O)[nH]c2cc(F)ccc12 (centres undefined)
0.99

Please do the same for Cc1ccnc(C)c1NC(=O)NCc1cccc(N2CCOCC2)c1 as well.
1

Further, for N#Cc1cnn(-c2ccccc2NC(=O)Cc2ccn[nH]2)c1N ?
0.96

Repeat for the following compound: C=CC(=O)N(c1ccc(C(C)(C)C)cc1)C(C(=O)Nc1c(C)cccc1CC)c1cccnc1 (centres undefined)
0.69

What about CO[C@H](C)C(=O)Nc1cnccc1C (stereo in doubt) ?
1

And the next one, O=C(Cn1nnc2ccccc21)NCc1ccc(Oc2cccnc2)c(F)c1 ?
0.99

CC(C(=O)Nc1cccc(NC2CCCC2)c1)c1cnccn1 (centres undefined) ?
0.98

Then COc1ccc2c(c1)C(C(=O)Nc1cnccc1-n1cccn1)CCC2 (centres undefined) ?
0.95

Now try O=C1/C(=C/c2ccc(O)cc2)c2ccccc2C(=O)N1Cc1ccc2c(c1)OCO2 .
0.48

And what about the compound N#Cc1ccccc1S(=O)(=O)N1CCN(C(=O)c2cc(=O)[nH]c3ccc(F)cc23)CC1 ?
0.92

Also, Cn1cnnc1NC(=O)Cc1cccc(Cl)c1 please.
1

Check CC(=O)NCCc1c[nH]c2c(CN3CCN(C(=O)CCl)CC3)cccc12 too.
0.95

Same for CN1CCC(C(=O)NC2CCCCC2NC(=O)c2ccccc2)CC1 (centres undefined)
0.99

Moving on to C=CC(=O)N(c1ccc(C(C)(C)CC)cc1)C(C(=O)Nc1ccc(Br)cc1)c1cccnc1 (centres undefined)
0.66

Consider next the compound CC(C(=O)O)c1ccc2c(c1)[nH]c1ccc(Cl)cc12 (centres undefined) in the same way.
0.98

Another compound: C=CC(=O)N(c1ccc(SC)cc1)C(C(=O)Nc1c(C)cccc1CC)c1cccnc1 (centres undefined)
0.67

Another: CC(C)N(C)CC1CCN(c2ccc(S(N)(=O)=O)cc2)CC1
0.99
